Quick reference for Cmax among some compounds
# ASSAY TEXT: Pharmacokinetic properties in vivo in mice (iv and oral)
# CONDITION SET: mouse; CD-1 mice; iv 1.0 mg/kg, oral 2.0 mg/kg; plasma; read-out: Peak concentration Cmax

{"columns": ["COMPOUND", "U", "Cmax"],
 "data": [
  ["Cc1nnc(N2CCC2)c2c1CN(C(=O)CC1CN(c3ccnc(C(F)(F)F)c3)C1)C2 [Example 12]", "ng/mL", 614],
  ["Cc1nnc(C)c2c1CN(C(=O)CC1CN(c3ccnc(O[C@H](C)C(F)(F)F)c3)C1)C2 [Example 89]", "ng/mL", 345],
  ["Cc1nnc(C)c2c1CN(C(=O)CC1CN(c3ccnc(OCC(F)(F)F)c3)C1)C2 [Example 67]", "ng/mL", 827]
]}

---

# ASSAY TEXT: Pharmacokinetic properties in vivo in mice (iv and oral)
# CONDITION SET: mouse, plasma; CD-1 mice; iv 1.0 mg/kg, oral 2.0 mg/kg; read-out: Bioavailability F
# Protocol: The compounds obtained in the examples of the present disclosure were evaluated for their pharmacokinetic properties in vivo in CD-1 mice. The compounds were tested for their pharmacokinetic characteristics in rodents after intravenous injection and oral administration following standard protocols. […] Plasma concentration was quantitatively analyzed using LCMS/MS analysis method, and pharmacokinetic parameters were calculated.
OUTCOME MEASURE: bioavailability (%)

{"columns": ["STRUCTURE", "MEASURED VALUE"],
 "data": [
  ["Cc1nnc(C)c2c1CN(C(=O)CC1CN(c3ccnc(O[C@H](C)C(F)(F)F)c3)C1)C2", 80.6],
  ["Cc1nnc(N2CCC2)c2c1CN(C(=O)CC1CN(c3ccnc(C(F)(F)F)c3)C1)C2", 86.6],
  ["Cc1nnc(C)c2c1CN(C(=O)CC1CN(c3ccnc(OCC(F)(F)F)c3)C1)C2", 82.7]
]}

---

# ASSAY TEXT: Pharmacokinetic properties in vivo in mice (iv and oral)
# CONDITION SET: mouse, plasma; CD-1 mice; iv 1.0 mg/kg, oral 2.0 mg/kg; read-out: Volume of distribution at steady state Vdss

{"columns": ["STRUCTURE", "U", "Vd"],
 "data": [
  ["Cc1nnc(N2CCC2)c2c1CN(C(=O)CC1CN(c3ccnc(C(F)(F)F)c3)C1)C2", "L/kg", 2.3],
  ["Cc1nnc(C)c2c1CN(C(=O)CC1CN(c3ccnc(O[C@H](C)C(F)(F)F)c3)C1)C2", "L/kg", 3.72],
  ["Cc1nnc(C)c2c1CN(C(=O)CC1CN(c3ccnc(OCC(F)(F)F)c3)C1)C2", "L/kg", 1.53]
]}

---

# ASSAY TEXT: Pharmacokinetic properties in vivo in mice (iv and oral)
# CONDITION SET: mouse, plasma; CD-1 mice; oral 2.0 mg/kg; read-out: Area under the curve AUC0-last, po
OUTCOME MEASURE: AUC(0-t) (ng·h/mL)

{"columns": ["STRUCTURE", "OUTCOME MEASURE", "MEASURED VALUE"],
 "data": [
  ["Cc1nnc(C)c2c1CN(C(=O)CC1CN(c3ccnc(O[C@H](C)C(F)(F)F)c3)C1)C2", "AUC(0-t)", 3470],
  ["Cc1nnc(N2CCC2)c2c1CN(C(=O)CC1CN(c3ccnc(C(F)(F)F)c3)C1)C2", "AUC(0-t)", 1690],
  ["Cc1nnc(C)c2c1CN(C(=O)CC1CN(c3ccnc(OCC(F)(F)F)c3)C1)C2", "AUC(0-t)", 8040]
]}

---

# ASSAY TARGET: human M4 receptor (Homo sapiens)
# ASSAY TEXT: PAM activity on M4 receptor, FLIPR CALCIUM 6 assay in M4-Gα15-CHO cells with acetylcholine
# CONDITION SET: PAM mode with acetylcholine agonist, FLIPR calcium signal
pEC50: −log10 of the molar value.
OUTCOME MEASURE: pEC50

{"columns": ["MOLECULE", "OUTCOME MEASURE", "MEASURED VALUE"],
 "data": [
  ["CCc1nnc(C)c2c1CN(C(=O)CC1CN(c3ccnc(OCC(F)(F)F)c3)C1)C2", "pEC50", 6.05],
  ["Cc1nnc(N2CCC2)c2c1CN(C(=O)CC1CN(c3ccnc(C(F)(F)F)c3)C1C)C2 (centres unmarked)", "pEC50", 5.86],
  ["Cc1nnc(C)c2c1CN(C(=O)CC1CN(c3ccnc(OCC(F)(F)F)c3)C1)C2", "pEC50", 6.41],
  ["Cc1nnc(C)c2c1CN(C(=O)CC1CN(c3ccnc(O[C@@H](C)C(F)(F)F)c3)C1)C2", "pEC50", 6.24],
  ["Cc1nnc(C)c2c1CN(C(=O)CC1CN(c3ccnc(SC(F)(F)F)c3)C1)C2", "pEC50", 6.32],
  ["Cc1nnc(C)c2c1CN(C(=O)CC1CN(c3ccnc(C(F)(F)F)c3)C1)C2", "pEC50", 6.41],
  ["Cc1nnc(N2CCC2)c2c1CN(C(=O)CC1CN(c3ccnc(OCC(F)(F)F)c3)C1)C2", "pEC50", 6.60],
  ["Cc1nnc(C2CC2)c2c1CN(C(=O)CC1CN(c3ccnc(OCC(F)(F)F)c3)C1)C2", "pEC50", 5.95]
]}

---

# ASSAY TARGET: human M4 receptor (Homo sapiens, UniProt P08173)
# Sequence (P08173 1-479): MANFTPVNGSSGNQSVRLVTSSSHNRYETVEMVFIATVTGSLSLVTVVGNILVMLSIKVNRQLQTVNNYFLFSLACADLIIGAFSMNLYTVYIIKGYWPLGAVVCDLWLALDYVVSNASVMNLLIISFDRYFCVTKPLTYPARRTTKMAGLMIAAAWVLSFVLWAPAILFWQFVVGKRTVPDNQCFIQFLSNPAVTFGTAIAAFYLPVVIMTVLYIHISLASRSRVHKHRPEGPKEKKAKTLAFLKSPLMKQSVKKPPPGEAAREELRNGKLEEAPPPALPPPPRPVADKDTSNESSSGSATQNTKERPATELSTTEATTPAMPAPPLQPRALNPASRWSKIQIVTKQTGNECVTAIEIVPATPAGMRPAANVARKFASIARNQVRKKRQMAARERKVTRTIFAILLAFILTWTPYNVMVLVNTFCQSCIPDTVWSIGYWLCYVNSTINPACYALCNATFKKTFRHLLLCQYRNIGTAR
# ASSAY TEXT: PAM activity on M4 receptor, FLIPR CALCIUM 6 assay in M4-Gα15-CHO cells with acetylcholine
# CONDITION SET: PAM mode with acetylcholine agonist, FLIPR calcium signal
Quick reference for EC50 among some molecules

{"columns": ["MOLECULE", "EC50 (nM)"],
 "data": [
  ["Cc1nsc(N2CC(CC(=O)N3Cc4c(C)nnc(N5CCC5)c4C3)C2)n1 [Example 50]", 1780],
  ["Cc1nnc(N2CCC2)c2c1CN(C(=O)CC1CN(c3ccnc(C(F)(F)F)c3)C1)C2 [Example 12]", 350],
  ["Cc1nnc(C)c2c1CN(C(=O)CC1CN(c3ccnc(O[C@H](C)C(F)(F)F)c3)C1)C2 [Example 89]", 290]
]}

Source: patent US20260109700A1
